Target or system: Orco (Drosophila melanogaster, UniProt Q9VNB5, K339N)
Construct: OrX/OrcoK339N in olfactory sensory neurons (Orco1 null background), ex vivo antenna; with OrX
Sequence (Q9VNB5 whole entry K339N): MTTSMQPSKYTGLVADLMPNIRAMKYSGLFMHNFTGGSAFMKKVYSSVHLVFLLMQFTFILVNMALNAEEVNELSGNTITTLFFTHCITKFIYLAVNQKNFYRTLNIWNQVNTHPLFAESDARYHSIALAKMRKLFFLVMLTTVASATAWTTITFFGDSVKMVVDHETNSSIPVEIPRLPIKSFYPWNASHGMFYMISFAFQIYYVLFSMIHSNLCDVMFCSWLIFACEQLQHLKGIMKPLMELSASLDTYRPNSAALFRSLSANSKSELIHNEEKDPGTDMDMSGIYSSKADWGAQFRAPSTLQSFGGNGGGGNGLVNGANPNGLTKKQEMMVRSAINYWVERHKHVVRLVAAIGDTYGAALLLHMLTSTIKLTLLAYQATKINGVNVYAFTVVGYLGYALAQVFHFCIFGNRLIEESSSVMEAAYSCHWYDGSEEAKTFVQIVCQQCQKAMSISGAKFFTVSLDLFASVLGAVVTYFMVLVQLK
Assay protocol: GCaMP6f Ca2+ imaging of OSNs, concentration-response
Assay readout: EC50 (µM)
Give bare numbers, in µM.

Incoming: Read the entry CCc1ccc(NC(=O)CSc2nnc(-c3cccnc3)n2CC)cc1 [VUAA1] and write its reported EC50.
Outgoing: 85

* * *

Target or system: Orco (Drosophila melanogaster)
Construct: native OrX/OrcoWT in olfactory sensory neurons, ex vivo antenna; with OrX
Assay protocol: GCaMP6f Ca2+ imaging of OSNs, concentration-response
Assay readout: pEC50
One number for each entry, as −log10 of the molar value.

Incoming: Answer with reported pEC50 of CCc1ccc(NC(=O)CSc2nnc(-c3cccnc3)n2CC)cc1
Outgoing: 4.06
